# strict inequality: melting point < 60 °C yields satisfied, everything else yields not satisfied

INSERT INTO assay_data (compound, class_assignment) VALUES
  ('O=Cc1ccc(O)c(O)c1O [2,3,4-trihydroxybenzaldehyde]', 'not satisfied'),
  ('N#Cc1ccc(C#N)cc1 [1,4-dicyanobenzene]', 'not satisfied'),
  ('COC(C)(C)C [2-Methoxy-2-methylpropane]', 'satisfied'),
  ('C[C@]12CC[C@H]3[C@@H](CCC4=CC(=O)CC[C@@]43C)[C@@H]1CC[C@@H]2O', 'not satisfied'),
  ('CCCCCCCCCCCCCCCCCO [Heptadecan-1-ol]', 'satisfied'),
  ('O=[N+]([O-])c1cc([N+](=O)[O-])c(C2CO2)cc1C1CO1 (configuration not stated)', 'not satisfied'),
  ('COc1cc(Cl)ccc1O', 'satisfied'),
  ('CC(C)(C#N)c1cc(Cn2cncn2)cc(C(C)(C)C#N)c1', 'not satisfied'),
  ('O=C1C=C(/C=C/c2ccccc2)CCC1 [3-[(E)-2-phenylethenyl]cyclohex-2-en-1-one]', 'not satisfied'),
  ('CCC(Br)CBr (configuration not stated)', 'satisfied'),
  ('CC(C)C1=C(O)C(=O)C2=C(CCC3C(C)(C)CCCC23C)C1=O (stereo not drawn) [7alpha-12-Hydroxy-8,12-abietadiene-11,14-dione]', 'not satisfied');
